The following molecules are listed with their measured Potency values.
- system-under-test: Glucocorticoid receptor (Homo sapiens) (UniProt P04150)
- Sequence (P04150 whole entry, looked up): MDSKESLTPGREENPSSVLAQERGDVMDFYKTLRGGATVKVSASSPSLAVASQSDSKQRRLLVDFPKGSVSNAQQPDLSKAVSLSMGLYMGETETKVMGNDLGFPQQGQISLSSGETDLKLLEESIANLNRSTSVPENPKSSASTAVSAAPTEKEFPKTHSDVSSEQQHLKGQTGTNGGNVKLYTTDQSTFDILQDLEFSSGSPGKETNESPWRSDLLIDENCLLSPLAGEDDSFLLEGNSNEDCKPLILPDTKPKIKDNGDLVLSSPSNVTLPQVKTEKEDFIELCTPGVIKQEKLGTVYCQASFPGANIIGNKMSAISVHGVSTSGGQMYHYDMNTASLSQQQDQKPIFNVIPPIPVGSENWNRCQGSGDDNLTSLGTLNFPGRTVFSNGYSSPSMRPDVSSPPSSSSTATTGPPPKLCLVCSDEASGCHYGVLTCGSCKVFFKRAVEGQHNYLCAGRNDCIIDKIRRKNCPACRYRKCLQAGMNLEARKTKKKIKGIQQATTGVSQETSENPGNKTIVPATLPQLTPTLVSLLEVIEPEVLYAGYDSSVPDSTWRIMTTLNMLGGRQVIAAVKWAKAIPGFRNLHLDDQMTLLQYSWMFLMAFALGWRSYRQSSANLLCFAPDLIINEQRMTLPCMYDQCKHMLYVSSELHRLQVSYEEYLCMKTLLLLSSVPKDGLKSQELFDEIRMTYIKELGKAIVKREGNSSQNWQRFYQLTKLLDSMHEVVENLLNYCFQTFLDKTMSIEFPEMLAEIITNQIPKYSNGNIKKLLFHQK
- experiment: GR-EFC Redistribution (AID 451); further: potency means the concentration at half of the fitted maximal effect
- measurement-setup: CHO-K1 GR-EFC translocation, beta-gal luminescence, 2 h
Calls of active or inactive are those of the source. The call rests on the fitted dose curve.

The following molecules have reported results that may help.
[[record]]
structure_notation = "O=C(O)c1ccccc1-c1ccccc1C(=O)Nc1ccc2c(c1)Cc1ccccc1-2"
experimental_value = "> 9.22 µM (inactive)"

[[record]]
structure_notation = "O=C(O)CCCc1ccc2ccccc2c1"
experimental_value = "> 9.22 µM (inactive)"

[[record]]
structure_notation = "CO/N=C(\\C(=O)N[C@@H]1C(=O)N2C(C(=O)O)=C(CSc3nc(=O)c(O)nn3C)CS[C@@H]12)c1csc(N)n1"
experimental_value = "> 46 µM (inactive)"

[[record]]
structure_notation = "O=C(SCc1cccc2ccccc12)c1ccc(Cl)cc1"
experimental_value = "> 9.22 µM (inactive)"


Write down the reported Potency (system: Glucocorticoid receptor (Homo sapiens) (UniProt P04150)) of `N#CC1(Nc2ccc(-c3ccc(NC4(C#N)CCCC4)cc3)cc2)CCCC1`
> 9.22 µM (inactive)

---

- Tested on: W2
- experiment: qHTS profiling for inhibitors of Plasmodium falciparum proliferation (AID 504749); further: nearly all actives have a fitted effect of over 60% in size
- measurement-setup: P. falciparum in erythrocytes, SYBR Green DNA, 72 h; series mostly up to 28.7 µM
Results filed as inconclusive are left out. Activity calls are given as the source filed them. Calls come from the whole dose curve; as a rule, active = well fitted inhibition curve with a large enough effect; inconclusive = small, poorly fitted or top-dose-only effect; inactive = flat fitted curve, though single readings scatter.
Write down one outcome, taken from active, inactive

Use these answered entries as a reference point.
[[record]]
structure_notation = "O=C(O)[C@@H](O)[C@@H](O)[C@H](O)C(=O)CO"
system_under_test = "W2"
assigned_label = "inactive"

[[record]]
structure_notation = "C=C(NC(=O)C(=C)NC(=O)c1csc(C2=N[C@@H]3c4csc(n4)[C@@H]4NC(=O)c5csc(n5)[C@@H]([C@](C)(O)[C@H](C)O)NC(=O)[C@@H]5CSC(=N5)/C(=C/C)NC(=O)[C@@H]([C@H](C)O)NC(=O)c5csc(n5)[C@]3(CC2)NC(=O)[C@@H](C)NC(=O)C(=C)NC(=O)[C@@H](C)NC(=O)[C@@H]([C@@H](C)CC)N[C@H]2C=Cc3c([C@H](C)O)cc(nc3[C@@H]2O)C(=O)O[C@H]4C)n1)C(N)=O"
system_under_test = "W2"
assigned_label = "active"

[[record]]
structure_notation = "COc1cc2nc(N(C)CCCNC(=O)[C@@H]3CCCO3)nc(N)c2cc1OC"
system_under_test = "W2"
assigned_label = "inactive"

[[record]]
structure_notation = "CCc1ccc2c(c1)N(C[C@H](C)CN(C)C)c1ccccc1S2"
system_under_test = "W2"
assigned_label = "active"

[[record]]
structure_notation = "COc1cccc2c1C(=O)c1c(O)c3c(c(O)c1C2=O)C[C@](O)(C(=O)CO)C[C@@H]3O[C@H]1C[C@H](N)[C@@H](O)[C@H](C)O1"
system_under_test = "W2"
assigned_label = "inactive"


Please find the next molecule below.
Just curious, what result did `N[C@H](COP(=O)(O)O)C(=O)O` get here?
inactive

---

- experiment: Cell Viability - LYMP2-020 (AID 986);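 further: cells exposed to compound for 24 h at 37 °C; nearly all actives have a fitted effect of over 55% in size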
- measurement-setup: series mostly up to 92.2 µM
Inconclusive results are not listed. Activity calls are given as the source filed them. Calls come from the whole dose curve; as a rule, active = well fitted cell-killing curve with a large enough effect; inconclusive = small, poorly fitted or top-dose-only effect; inactive = flat fitted curve, though single readings scatter.
The reply should name one outcome from active, inactive

[[record]]
compound = "Cc1ccc(O)c(N)c1"
assigned_label = "active"


GET /call?item= `CCOc1ccc2nc(N)sc2c1` returns the recorded outcome of this test.
inactive

Record request — test call for `C/C=C1/C(=O)C[C@H]2[C@@H]3CCC4=CC(=O)CC[C@]4(C)[C@H]3CC[C@]12C`
active

What did this assay record as the result for `Nc1ccc(-c2ccc(N)c(O)c2)cc1O` ?
inactive

// param item: CCCCC(CC)COP(=O)(OCC(CC)CCCC)OCC(CC)CCCC (stereo unspecified) ; yields the recorded call
inactive

Which result was noted for this compound in the test: `O=[N+]([O-])c1ccccc1Nc1ccccc1`
inactive

Please indicate how the test categorized CC(=O)OC1CC(C)OC(C)O1 (stereo unspecified) .
inactive

Which outcome was assigned to `Cc1cccnc1` in this test?
inactive

Record request — test call for CC(C)OCC1CO1 (stereo unspecified)
inactive

Hi, sorry to bother you, what did the test record for `c1ccc(SCCSc2ccccc2)cc1` ?
inactive

Lab log entry: `CC(=O)c1ccc(Cl)c(Cl)c1Cl` — outcome as called in the assay?
inactive

Could you kindly confirm the outcome this assay logged for `Nc1ccccc1O` ?
inactive

---

- System: DFO2036
- experiment: qHTS profiling for inhibitors of Plasmodium falciparum proliferation (AID 504749); further: nearly all actives have a fitted effect of over 60% in size
- measurement-setup: P. falciparum in erythrocytes, SYBR Green DNA, 72 h; series mostly up to 28.7 µM
Records with an inconclusive call do not appear. The source made the active and inactive calls. Calls come from the whole dose curve; as a rule, active = well fitted inhibition curve with a large enough effect; inconclusive = small, poorly fitted or top-dose-only effect; inactive = flat fitted curve, though single readings scatter.
Choose one outcome from this list and give only that: 1 for active, -1 for inactive

A selection of reference data follows.
[[record]]
molecule = "COc1cc2nc(N(C)CCCNC(=O)[C@@H]3CCCO3)nc(N)c2cc1OC"
assigned_label = -1

[[record]]
molecule = "C[C@]12CC[C@H]3c4ccc(O)cc4CC[C@@H]3[C@H]1CC[C@@H]2OP(=O)(O)O"
assigned_label = -1

[[record]]
molecule = "Cc1c(C(=O)O)c(O)cc2c1C(=O)c1c(O)c([C@H]3O[C@H](CO)[C@@H](O)[C@H](O)[C@H]3O)c(O)c(O)c1C2=O"
assigned_label = -1

[[record]]
molecule = "C[N+]1(C)[C@@H]2CC(OC(=O)[C@@H](CO)c3ccccc3)C[C@@H]1[C@H]1O[C@H]12 (some centres undefined)"
assigned_label = -1

[[record]]
molecule = "C[C@]12CC[C@H]3c4ccc(O)cc4CC[C@@H]3[C@H]1CC[C@@H]2OC(=O)CCC1CCCC1"
assigned_label = -1


Assay result, entry `N[C@H](COP(=O)(O)O)C(=O)O` — outcome?
-1

Name the outcome recorded for `C[C@H](CCC(=O)O)[C@H]1CC[C@@H]2[C@H]3[C@@H](C[C@@H](O)[C@]21C)[C@]1(C)CC[C@H](O)C[C@@H]1C[C@@H]3O` in the assay.
-1

What did the test return for `CO/N=C(\C(=O)N[C@@H]1C(=O)N2C(C(=O)[O-])=C(C[N+]3(C)CCCC3)CS[C@@H]12)c1csc(N)n1` ?
-1

Hi team, can someone confirm the assay call for `O=C(O)[C@@H](O)[C@@H](O)[C@H](O)C(=O)CO` ?
-1

Answer briefly: the call reported for `C[C@@H]1C[C@H]2[C@H]3C[C@@H](F)C4=CC(=O)C=C[C@]4(C)[C@@]3(Cl)[C@@H](O)C[C@@]2(C)[C@@H]1C(=O)COC(=O)C(C)(C)C` in this assay.
-1

Please let me know the test result on file for `N[C@@H](Cc1ccccc1)C(=O)O` .
-1

---

- experiment: Cell Viability - LYMP2-020 (AID 986);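 further: cells exposed to compound for 24 h at 37 °C; nearly all actives have a fitted effect of over 55% in size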
- measurement-setup: series mostly up to 92.2 µM
Inconclusive results are not listed. Active and inactive are the calls of the source. Calls follow the shape of the dose curve; as a rule, active = well fitted cell-killing curve with a large enough effect; inconclusive = small, poorly fitted or top-dose-only effect; inactive = flat fitted curve, though single readings scatter.
# valid calls are active, inactive; nothing else

[[record]]
compound = "COc1cc(-c2ccc(N=C=O)c(OC)c2)ccc1N=C=O"
assigned_label = "inactive"

[[record]]
compound = "CN(C)c1ccc(Cc2ccc(N(C)C)cc2)cc1"
assigned_label = "inactive"

[[record]]
compound = "Cc1cc2nc(N)sc2cc1C"
assigned_label = "inactive"

[[record]]
compound = "C/C=C/C=C/C=O"
assigned_label = "active"

[[record]]
compound = "C[Si](C)(C)Cl"
assigned_label = "inactive"


Shift focus to the following entry.
Tell me the assay call for `Nc1cc(C(=O)O)c(O)c(S(=O)(=O)O)c1` please.
inactive

---

- experiment: Stat Signaling Pathway (AID 446);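 further: ME-180 cervical cancer cells given 40 pM IL-6 alongside compound; SIE-controlled beta-lactamase reporter measured as 460/530 nm FRET emission ratio; on the % scale 0 is the no-effect control and ±100 the full control effect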
- measurement-setup: ME-180 (cervical carcinoma) SIE beta-lactamase reporter, IL-6 stimulated, 5 h; at 7.69 µM (top of the series) unless noted
Results filed as inconclusive are left out. The source made the active and inactive calls. Calls follow the shape of the dose curve; as a rule, active = well fitted curve in either direction with a large enough effect (not every such curve was filed as active); inconclusive = small, poorly fitted or top-dose-only effect, or another doubt; inactive = flat fitted curve, though single readings scatter.
measured-attribute: activity, negative = inhibition

Provide measured activity, negative = inhibition value, entry: `COc1cc([C@H](O)C(=O)O)ccc1O`
4.86% [at 38 µM] (inactive)

Identify activity, negative = inhibition associated with the compound `Nc1nc(-c2cc(-c3cccc4ccccc34)nc(N)n2)cc(-c2cccc3ccccc23)n1`
-4.92% (inactive)

Note down activity, negative = inhibition recorded for `Cc1cc(OCc2nc(N)nc(N)c2-c2ccc(Cl)c(Cl)c2)ccc1[N+](=O)[O-]`
-17.5% (inactive)

Given `Cc1c(Cl)c(S(N)(=O)=O)cc2c1=NC=NS=2(=O)O` , respond with its activity, negative = inhibition.
1.77% (inactive)

Respond only with activity, negative = inhibition recorded for `Nc1nc(SCc2ccccc2Cl)cc(C(=O)O)n1`
4.58% (inactive)

Using known records, supply activity, negative = inhibition for `CC1=C(C(=O)O)N2C(=O)[C@@H](NC(=O)[C@@H](N)C3=CCC=CC3)[C@@H]2SC1`
-5.32% [at 38 µM] (inactive)

Specify measured activity, negative = inhibition for `CC(C)[C@](N)(C(=O)O)c1ccccc1` .
29.8% (inactive)

In one line, give reported activity, negative = inhibition of the entry `Cn1c(=O)c2[nH]c(/N=N\N3CCN(CCO)CC3)nc2n(C)c1=O` .
11.6% (inactive)

Please give measured activity, negative = inhibition of the following entry: `NCC(=O)[C@@H](O)[C@H](O)[C@H](O)CO`
3.6% (inactive)

Check the records and state activity, negative = inhibition for `Nc1nc(N)c(CCCCc2ccccc2)c(N)n1`
1.49% (inactive)

For the compound `O=C1c2ccccc2-c2ccc(NC(=O)[C@H]3CCCC[C@@H]3C(=O)O)cc21` , give its measured activity, negative = inhibition value.
1.55% (inactive)

Retrieve activity, negative = inhibition measured for `O=C(O)CCNc1ncnc2nc[nH]c12` and print it.
-5.64% (inactive)

Complete the entry with activity, negative = inhibition for `O=C(O)C[C@H](Cc1ccccc1Cl)C(=O)O`
13.9% (inactive)

Query activity, negative = inhibition for `O=C(O)/C(=C\c1ccc(O)cc1)c1cccc2ccccc12`
-8.2% (inactive)

State its activity, negative = inhibition: `CSC(N)=NCCC[C@@H](N)C(=O)O`
10.5% [at 38 µM] (inactive)

Please give measured activity, negative = inhibition of the following entry: `COc1ccc(-c2cc([C@H](O)[C@@H]3CCCCN3)c3ccccc3n2)cc1`
2.85% (inactive)
